# KD(mutein“1”)/KDmutein annotations
- target_of_assay: T1, E. coli alkaline phosphatase Strep-tag®II fusion protein (E. coli, UniProt P00634 22-471 = phosphatase)
- T1 construct: mature; also called BAP-StrepII; BAP-StrepIII
- procedure_details: ELISA, mutein coated, BAP-StrepII titrated
// return a plain number; no unit text

Study these solved cases before continuing.
mutein“1”-m23 (designed binder, Library 3 clone on mutein “1”) EAGITGTWYNQLGSTFIVTAGADGALTGTYVTARGNAESRYVLTGRYDSAPATDGSGTALGWTVAWKNNYRNAHSATTWSGQYVGGAEARINTQWLLTSGTTEYNAYASTLVGHDTFTKVKPSAAS: 9.2
mutein“1”-m207 (designed binder, Library 6 clone on mutein “1”, 118 and 119 deleted) EAGITGTWYNQLGSTFIVTAGADGALTGTYVTARGNAESRYVLTGRYDSAPATDGSGTALGWTVAWKNNYRNAHSATTWSGQYVGGAEARINTQWLLTSGTTETWLSTLVGHDTFTKVKPSAAS: 4.1
mutein“1”-m36 (designed binder, Library 3 clone on mutein “1”) EAGITGTWYNQLGSTFIVTAGADGALTGTYVTARGNAESRYVLTGRYDSAPATDGSGTALGWTVAWKNNYRNAHSATTWSGQYVGGAEARINTQWLLTSGTTEYNAFMSTLVGHDTFTKVKPSAAS: 9.2

Now turn to the next binder.
Memo: mutein“1”-m111 (designed binder, Library 5 clone on mutein “1”) EAGITGTWYNQLGSTFIVTAGADGALTGTYVTARGNAESRYVLTGRYDSAPATDGSGTALGWTVAWKNNYRNAHSATTWSGQYVGGAEARINTQWLLTSGTTEYNALWSTLVGHDTFTKVKPSAAS , reported KD(mutein“1”)/KDmutein: 8.5
